target: T1, human CD38 (full length, on cells) (human, UniProt P28907 1-300); assay: flow cytometry, binding to Daudi cells
T1 construct: Endogenous on Daudi, Raji, Jurkat cells, human PBMC/T cells; full-length CD38 expressed in HEK-293T cells for alanine scanning; also called Uniprot P28907
READOUT NAME: EC50 (µg/mL)
Reply numerically in µg/mL, unit not repeated.

Reference set (3 entries):
>>> endpoint_result("aCD38-b-348 (human IgG1) (antibody, V domains shown, Human IgG1) VH: QLQLQESGPGLVKPSETLSLTCTVSGGSISSSDYYWGWIRQPPGKGLEWIGSIYYSGSTYYNPSLKSRVTISVDTSKNQFSLKLSSVTAADTAVYYCARGQYSSGWYAYPFDMWGQGTMVTVSS VL: EIVLTQSPGTLSLSPGERATLSCRASQSVRSSYLAWYQQKPGQAPRLLIYGASSRATGIPDRFSGSGSGTDFTLTISRLEPEDFAVYYCQQDGNVYTFGGGTKVEIK")
0.341
>>> endpoint_result("aCD38-b-348-m2 (antibody, IgG1, V domains shown) VH: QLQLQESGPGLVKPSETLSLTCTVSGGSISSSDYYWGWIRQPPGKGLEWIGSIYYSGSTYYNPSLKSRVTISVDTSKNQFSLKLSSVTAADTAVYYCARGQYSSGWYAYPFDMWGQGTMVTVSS VL: EIVLTQSPGTLSLSPGERATLSCRASQSVRSSYLAWYQQKPGQAPRLLIYGASSRATGIPDRFSGSGSGTDFTLTISRLEPEDFAVYYCQQDSNVYTFGGGTKVEIK")
0.499
>>> endpoint_result("aCD38-b-348-m3 (antibody, IgG1, V domains shown) VH: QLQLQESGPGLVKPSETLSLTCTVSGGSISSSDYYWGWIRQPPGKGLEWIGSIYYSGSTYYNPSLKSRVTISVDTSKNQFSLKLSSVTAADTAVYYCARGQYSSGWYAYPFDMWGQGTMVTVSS VL: EIVLTQSPGTLSLSPGERATLSCRASQSVRSSYLAWYQQKPGQAPRLLIYGASSRATGIPDRFSGSGSGTDFTLTISRLEPEDFAVYYCQQDANVYTFGGGTKVEIK")
0.558

Query: Answer with the recorded EC50 of aCD38-b-348-m1 (antibody, IgG1, V domains shown, also called aCD38-b-348-ml) VH: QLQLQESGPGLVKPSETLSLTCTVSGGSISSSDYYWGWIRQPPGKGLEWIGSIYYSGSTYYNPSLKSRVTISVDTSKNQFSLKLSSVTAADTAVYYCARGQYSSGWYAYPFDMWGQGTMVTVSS VL: EIVLTQSPGTLSLSPGERATLSCRASQSVRSSYLAWYQQKPGQAPRLLIYGASSRATGIPDRFSGSGSGTDFTLTISRLEPEDFAVYYCQQEANVYTFGGGTKVEIK only.
Reply: 0.485
